Assay: Inhibition of NADH:ubiquinone oxidoreductase in rat liver mitochondria incubated for 3 mins
Quantity: IC50 (µM)
Field: numeric (µM). Do not append units.

>>> recorded_result("O=C(CCCCc1cccs1)N1CCN(c2ccc(C(F)(F)F)cc2)CC1")
60
>>> recorded_result("O=C(CCCc1cccs1)N1CCN(c2ccc(C(F)(F)F)cc2)CC1")
27
>>> recorded_result("CN1CCN(c2ncc(C(F)(F)F)cc2Cl)CC1")
67
>>> recorded_result("O=C(CCCc1cccs1)N1CCN(c2ccc(C(F)(F)F)cc2Cl)CC1")
46
>>> recorded_result("CN1CCN(C(=O)CCCc2cccs2)CC1")
161

Enquiry: Which IC50 is listed for O=C(CCCc1cccs1)Nc1ccc(C(F)(F)F)cc1 ?
Return: 92

Enquiry: O=C(CCCc1cccs1)N1CCN(c2ccc([N+](=O)[O-])cc2)CC1 , same question.
Return: 17

Enquiry: O=C(CCCCc1ccccc1)N1CCN(c2ccc(C(F)(F)F)cc2)CC1 , same question.
Return: 6

---

Assay: Clearance in C57 Black mouse assessed as liver blood flow at 10 mg/kg, iv or po
Format: ADME, organism-based
Conditions: in vivo
Quantity: clearance (mL/min/kg)
Field: numeric (mL/min/kg). Do not append units.

Enquiry: Which clearance is listed for O=C(CCCc1cccs1)N1CCN(c2ccc(C(F)(F)F)cc2)CC1 ?
Return: 90

---

Test: AUCall in C57 Black mouse plasma at 10 mg/kg, po
Assay type: ADME, organism-based
Design: dose 10 mg/kg
Quantity: AUC (ng·h/mL)
Field: numeric (ng·h/mL). Do not append units.

Enquiry: Which AUC is listed for O=C(CCCc1cccs1)N1CCN(c2ccc(C(F)(F)F)cc2)CC1 ?
Return: 520

---

Assay: AUCinfinity in C57 Black mouse kidney at 10 mg/kg, iv
Format: ADME, organism-based
Set-up: route intravenous, time infinity, dose 10 mg/kg
Quantity: AUC(0-inf) (ng·h/mL)
Field: numeric (ng·h/mL). Do not append units.

Enquiry: Which AUC(0-inf) is listed for O=C(CCCc1cccs1)N1CCN(c2ccc(C(F)(F)F)cc2)CC1 ?
Return: 348

---

Assay: Cmax in C57 Black mouse plasma at 10 mg/kg, po
Type: ADME, organism-based
Parameters: route oral, dose 10 mg/kg
Quantity: Cmax
I'd appreciate it if you included the unit after the number.

Enquiry: Which Cmax is listed for O=C(CCCc1cccs1)N1CCN(c2ccc(C(F)(F)F)cc2)CC1 ?
Return: 787 ng/mL

---

Assay: AUCall in C57 Black mouse brain at 10 mg/kg, iv
Format: ADME, organism-based
Parameters: dose 10 mg/kg
Quantity: AUC (ng·h/mL)
Field: numeric (ng·h/mL). Do not append units.

Enquiry: Which AUC is listed for O=C(CCCc1cccs1)N1CCN(c2ccc(C(F)(F)F)cc2)CC1 ?
Return: 246

---

Assay: Cmax in C57 Black mouse spleen at 10 mg/kg, iv
Assay type: ADME, organism-based
Parameters: route intravenous, dose 10 mg/kg
Quantity: Cmax (ng/mL)
Field: numeric (ng/mL). Do not append units.

Enquiry: Which Cmax is listed for O=C(CCCc1cccs1)N1CCN(c2ccc(C(F)(F)F)cc2)CC1 ?
Return: 587

---

Experiment: Half life in C57 Black mouse spleen at 10 mg/kg, iv
Type: ADME, organism-based
Quantity: half-life (h)
Field: numeric (h). Do not append units.

Enquiry: Which half-life is listed for O=C(CCCc1cccs1)N1CCN(c2ccc(C(F)(F)F)cc2)CC1 ?
Return: 1.1

---

Assay: Half life in C57 Black mouse muscle at 10 mg/kg, iv
Assay type: ADME, organism-based, Muscle tissue
Quantity: half-life (min)
Field: numeric (min). Do not append units.

Enquiry: Which half-life is listed for O=C(CCCc1cccs1)N1CCN(c2ccc(C(F)(F)F)cc2)CC1 ?
Return: 31.2

---

Assay: Half life in C57 Black mouse plasma at 10 mg/kg, iv
Assay type: ADME, organism-based
Quantity: half-life (min)
Field: numeric (min). Do not append units.

Enquiry: Which half-life is listed for O=C(CCCc1cccs1)N1CCN(c2ccc(C(F)(F)F)cc2)CC1 ?
Return: 27

---

Assay: Cmax in C57 Black mouse kidney at 10 mg/kg, iv
Format: ADME, organism-based
Design: route intravenous, dose 10 mg/kg
Quantity: Cmax
I'd appreciate it if you included the unit after the number.

Enquiry: Which Cmax is listed for O=C(CCCc1cccs1)N1CCN(c2ccc(C(F)(F)F)cc2)CC1 ?
Return: 552 ng/mL

---

Assay: Intrinsic clearance in mouse microsomes at 1 uM up to 120 mins by HPLC/MS-MS analysis
Assay type: ADME, Microsome
Quantity: microsomal CLint at 1 µM (µL/min/mg)
Field: numeric (µL/min/mg). Do not append units.

Enquiry: Which microsomal CLint at 1 µM is listed for O=C(CCCc1cccs1)N1CCN(c2ccc(C(F)(F)F)cc2)CC1 ?
Return: 226

---

Assay: Half life in human hepatocytes at 1 uM up to 120 mins by HPLC-MS/MS analysis
Type: ADME, cell-based, Hepatocyte
Quantity: half-life at 1 µM

Enquiry: Which half-life at 1 µM is listed for O=C(CCCc1cccs1)N1CCN(c2ccc(C(F)(F)F)cc2)CC1 ?
Return: 3 min

---

Assay: Half life in C57 Black mouse spleen at 10 mg/kg, po
Assay type: ADME, organism-based
Quantity: half-life
I'd appreciate it if you included the unit after the number.

Enquiry: Which half-life is listed for O=C(CCCc1cccs1)N1CCN(c2ccc(C(F)(F)F)cc2)CC1 ?
Return: 1.1 h

---

Experiment: Half life in mouse plasma at 1 uM after 60 to 120 mins by HPLC-MS/MS analysis
Assay type: ADME, cell-free
Settings: time 60-120 min
Quantity: half-life at 1 µM (h)
Field: numeric (h). Do not append units.

Enquiry: Which half-life at 1 µM is listed for O=C(CCCc1cccs1)N1CCN(c2ccc(C(F)(F)F)cc2)CC1 ?
Return: 5.45

---

Target: CYP1A2 (Homo sapiens, UniProt P05177)
Sequence (P05177 whole entry): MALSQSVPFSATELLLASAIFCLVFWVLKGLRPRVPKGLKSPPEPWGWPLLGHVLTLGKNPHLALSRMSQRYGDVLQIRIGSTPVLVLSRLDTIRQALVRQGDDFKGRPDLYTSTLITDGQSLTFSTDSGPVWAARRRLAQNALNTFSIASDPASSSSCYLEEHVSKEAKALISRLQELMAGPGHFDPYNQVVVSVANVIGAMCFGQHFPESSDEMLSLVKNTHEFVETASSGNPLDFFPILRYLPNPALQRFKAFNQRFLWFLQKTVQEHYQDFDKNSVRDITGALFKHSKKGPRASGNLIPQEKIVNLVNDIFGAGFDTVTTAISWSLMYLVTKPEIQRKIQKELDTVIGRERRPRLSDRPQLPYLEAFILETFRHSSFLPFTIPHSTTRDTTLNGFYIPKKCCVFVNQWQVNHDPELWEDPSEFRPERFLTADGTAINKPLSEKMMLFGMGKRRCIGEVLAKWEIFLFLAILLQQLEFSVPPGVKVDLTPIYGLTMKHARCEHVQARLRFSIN
Assay: Inhibition of human CYP1A2 using fluorogenic substrate incubated for 60 mins in presence of NADPH by fluorescence assay relative to control
Type: ADME
Conditions: probe fluorogenic substrate
Quantity: inhibition at 1 h (%)
Field: numeric (%). Do not append units.

Enquiry: Which inhibition at 1 h is listed for O=C(CCCc1cccs1)N1CCN(c2ccc(C(F)(F)F)cc2)CC1 ?
Return: 53.7

---

Assay: Cmax in C57 Black mouse brain at 10 mg/kg, iv
Format: ADME, organism-based
Design: route intravenous, dose 10 mg/kg
Quantity: Cmax

Enquiry: Which Cmax is listed for O=C(CCCc1cccs1)N1CCN(c2ccc(C(F)(F)F)cc2)CC1 ?
Return: 1030 ng/mL

---

Biological target: UniProt:P08684
Sequence (P08684 whole entry): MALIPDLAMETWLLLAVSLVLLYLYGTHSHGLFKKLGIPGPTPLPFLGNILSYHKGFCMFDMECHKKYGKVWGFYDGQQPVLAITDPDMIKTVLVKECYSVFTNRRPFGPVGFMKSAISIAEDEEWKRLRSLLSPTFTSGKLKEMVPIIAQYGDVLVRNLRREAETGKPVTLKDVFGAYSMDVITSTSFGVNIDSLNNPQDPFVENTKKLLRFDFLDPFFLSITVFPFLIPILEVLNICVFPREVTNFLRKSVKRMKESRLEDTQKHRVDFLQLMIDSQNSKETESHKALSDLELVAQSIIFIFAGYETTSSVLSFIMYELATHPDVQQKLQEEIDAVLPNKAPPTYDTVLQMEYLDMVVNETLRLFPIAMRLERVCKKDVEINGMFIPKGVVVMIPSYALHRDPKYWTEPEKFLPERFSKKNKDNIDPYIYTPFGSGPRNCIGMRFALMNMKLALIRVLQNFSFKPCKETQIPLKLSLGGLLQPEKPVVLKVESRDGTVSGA
Assay: Inhibition of human CYP3A4 using fluorogenic substrate incubated for 60 mins in presence of NADPH by fluorescence assay relative to control
Assay type: ADME
Conditions: probe fluorogenic substrate
Quantity: inhibition at 1 h (%)
Field: numeric (%). Do not append units.

Enquiry: Which inhibition at 1 h is listed for O=C(CCCc1cccs1)N1CCN(c2ccc(C(F)(F)F)cc2)CC1 ?
Return: 80.2

---

Experiment: AUCall in C57 Black mouse muscle at 10 mg/kg, iv
Type: ADME, organism-based, Muscle tissue
Design: dose 10 mg/kg
Quantity: AUC (ng·h/mL)
Field: numeric (ng·h/mL). Do not append units.

Enquiry: Which AUC is listed for O=C(CCCc1cccs1)N1CCN(c2ccc(C(F)(F)F)cc2)CC1 ?
Return: 77.3

---

Experiment: Cmax in C57 Black mouse liver at 10 mg/kg, iv
Format: ADME, organism-based
Design: route intravenous, dose 10 mg/kg
Quantity: Cmax (ng/mL)
Field: numeric (ng/mL). Do not append units.

Enquiry: Which Cmax is listed for O=C(CCCc1cccs1)N1CCN(c2ccc(C(F)(F)F)cc2)CC1 ?
Return: 1830

---

Assay: Volume of distribution in C57 Black mouse plasma at 10 mg/kg, iv
Type: ADME, organism-based
Quantity: Vd
I'd appreciate it if you included the unit after the number.

Enquiry: Which Vd is listed for O=C(CCCc1cccs1)N1CCN(c2ccc(C(F)(F)F)cc2)CC1 ?
Return: 1.69 L/kg

---

Assay: Half life in C57 Black mouse plasma at 10 mg/kg, po
Type: ADME, organism-based
Quantity: half-life (min)
Field: numeric (min). Do not append units.

Enquiry: Which half-life is listed for O=C(CCCc1cccs1)N1CCN(c2ccc(C(F)(F)F)cc2)CC1 ?
Return: 45.6

---

Assay: Protein binding human serum at 1 uM after 60 to 120 mins by HPLC-MS/MS analysis
Assay type: ADME, cell-free
Conditions: time 60-120 min, read-out: PB (converted)
Quantity: fraction unbound at 1 µM

Enquiry: Which fraction unbound at 1 µM is listed for O=C(CCCc1cccs1)N1CCN(c2ccc(C(F)(F)F)cc2)CC1 ?
Return: 0.0052

meta.source: ChEMBL document CHEMBL4765370
